system_tested: Gonadotropin-releasing hormone receptor (Rattus norvegicus)
protocol_notes: Agonist activity at LH-RH receptor in Sprague-Dawley rat pituitary gland assessed as change in luteinizing hormone release in medium at 100 ug/ml incubated for 4 hrs measured every hour for 4 hrs by RIA relative to vehicle-treated control

- smiles_representation: "CCCC[C@H](NC(=O)[C@H](CC(C)C)NC(=O)[C@@H]1CCC(=O)N1)C(=O)N[C@@H](CO)C(=O)N[C@@H](Cc1ccc(O)cc1)C(=O)N[C@H](C)C(=O)N[C@@H](CC(C)C)C(=O)N[C@@H](CCCNC(=N)N)C(=O)N1CCC[C@H]1C(=O)NCC"
  Activity [ng/mL]: 13
- smiles_representation: "CCNC(=O)[C@@H]1CCCN1C(=O)[C@H](CCCNC(=N)N)NC(=O)[C@H](CC(C)C)NC(=O)[C@@H](C)NC(=O)[C@H](Cc1ccc(O)cc1)NC(=O)[C@H](CO)NC(=O)[C@H](CC)NC(=O)[C@H](CC(C)C)NC(=O)[C@@H]1CCC(=O)N1"
  Activity [ng/mL]: 1
- smiles_representation: "CCNC(=O)[C@@H]1CCCN1C(=O)[C@H](CCCNC(=N)N)NC(=O)[C@H](CC(C)C)NC(=O)[C@@H](C)NC(=O)[C@H](Cc1ccc(O)cc1)NC(=O)[C@H](CO)NC(=O)[C@H](CC(C)C)NC(=O)[C@@H](NC(=O)[C@@H]1CCC(=O)N1)[C@@H](C)CC"
  Activity [ng/mL]: 61
- smiles_representation: "CCNC(=O)[C@@H]1CCCN1C(=O)[C@H](CCCNC(=N)N)NC(=O)[C@H](CC(C)C)NC(=O)[C@@H](C)NC(=O)[C@H](Cc1ccc(O)cc1)NC(=O)[C@H](CO)NC(=O)[C@H](CC(C)C)NC(=O)[C@H](Cc1c[nH]c2ccccc12)NC(=O)[C@@H]1CCC(=O)N1"
  Activity [ng/mL]: 18
